Assay: Primary qHTS for inhibitors of nuclear receptor binding SET domain protein 2 (NSD2) in an RCH-ACV wild type WT cells (2C) (AID 1645877); note: nearly all actives have a fitted effect of over 70% in size
Conditions: RCH-ACV (leukaemia line) NSD2 WT (2C) viability, CellTiter-Glo, 72 h; series mostly up to 44.9 µM
Inconclusive results are not listed. Activity calls are given as the source filed them. Calls come from the whole dose curve; as a rule, active = well fitted inhibition curve with a large enough effect; inconclusive = small, poorly fitted or top-dose-only effect; inactive = no such curve, though single readings can be large or run the other way.
Hi! Could you answer with just one of these? 1 for active, -1 for inactive

### Prompt Query: recorded result category for "CCOC(=O)C(=O)c1csc(NC=O)n1" in this test
### Response -1

### Prompt Hello, I am checking results. What call was entered for "O=C(O)c1cn(C2CC2)c2cc(Cl)c(F)cc2c1=O" ?
### Response -1

### Prompt Would you mind telling me which call this test gave "CC(C)OP(=O)(CP(=O)(OC(C)C)OC(C)C)OC(C)C" ?
### Response -1

### Prompt Which outcome did this test record for the compound "C[C@H](CN1CCCC1)C(=O)c1ccc(C(F)(F)F)cc1" ?
### Response 1

### Prompt Field: outcome | Entry: "O=C(CO)[C@@H](O)[C@H](O)[C@@H](O)CO"
### Response -1

### Prompt Write down the call the test reported for this compound. Item: "CN(C)CCN(Cc1ccsc1)c1ccccn1"
### Response -1

### Prompt Dear all, I need the recorded test outcome for "CC(=O)N(c1onc(C)c1C)S(=O)(=O)c1ccc(N)cc1" , thank you.
### Response -1

### Prompt Please share the test call associated with "O=C(O)Cn1c(=O)n(Cc2ccc(Br)cc2F)c(=O)c2ccc(Cl)cc21" .
### Response -1

### Prompt Dear all, I need the recorded test outcome for "C/C(=N/NC(=O)c1ccncc1)C(=O)O" , thank you.
### Response -1

### Prompt Short answer needed: outcome of this test for "Nc1ccc2cc3ccc(N)cc3nc2c1" ?
### Response 1

### Prompt Any idea what this test logged for CCOC(=O)C(O)c1ccccc1 (stereo unspecified) ?
### Response -1

---

Assay: qHTS of pediatric cancer cell lines to identify multiple opportunities for drug repurposing: Primary screen for BT-37 cells (AID 1347094)
Conditions: BT-37 viability, CellTiter-Glo luminescence, 48 h; series mostly up to 57.3 µM
Results filed as inconclusive are left out. The source made the active and inactive calls. Calls follow the shape of the dose curve; as a rule, active = well fitted cell-killing curve with a large enough effect; inconclusive = small, poorly fitted or top-dose-only effect; inactive = flat fitted curve, though single readings scatter.
Write down the outcome that applies. Available outcomes: active, inactive

### Prompt Give the logged outcome of this assay for the following compound: "CC(=O)OCC(=O)Nc1cc(C#N)cc(NC(=O)COC(C)=O)c1Cl"
### Response inactive

### Prompt Answer briefly: the call reported for "C/C(=N\O)[C@@H](C)NCC(C)(C)CN[C@H](C)/C(C)=N/O" in this assay.
### Response inactive

### Prompt How did this test come out for CC1c2ccccc2CN1NC(=O)c1ccc(Cl)c(S(N)(=O)=O)c1 (stereo not given) ?
### Response inactive

### Prompt Returns: the outcome recorded for "Cc1onc(-c2c(Cl)cccc2Cl)c1C(=O)Cl" in this assay.
### Response inactive

### Prompt Short answer needed: outcome of this test for "O=C1CCCc2c(O)cccc21" ?
### Response inactive

### Prompt Could you check what this test reported for "C[C@@H](O[C@H]1OCCN(Cc2n[nH]c(=O)[nH]2)[C@H]1c1ccc(F)cc1)c1cc(C(F)(F)F)cc(C(F)(F)F)c1" ?
### Response active

### Prompt Recorded test outcome, item "CO[C@]1(NC(=O)CSC(F)F)C(=O)N2C(C(=O)O)=C(CSc3nnnn3CCO)CO[C@H]21"
### Response inactive

### Prompt Any idea what this test logged for "CCCc1ncc(C(=O)O)s1" ?
### Response inactive

### Prompt Write down the call the test reported for this compound. Item: "OCc1c[nH]c2ccccc12"
### Response inactive

### Prompt Call for entry "Fc1ccc(C(c2ccc(F)cc2)N2CCNCC2)cc1" :
### Response inactive

---

Test: qHTS of pediatric cancer cell lines to identify multiple opportunities for drug repurposing: Primary screen for TC32 cells (AID 1347089); note: nearly all actives have a fitted effect of over 60% in size
Conditions: TC32 Ewing sarcoma viability, CellTiter-Glo luminescence, 48 h; series mostly up to 45.8 µM
Inconclusive results are not listed. The source made the active and inactive calls. Calls come from the whole dose curve; as a rule, active = well fitted cell-killing curve with a large enough effect; inconclusive = small, poorly fitted or top-dose-only effect; inactive = flat fitted curve, though single readings scatter.
The reply should name one outcome from true (1) = active, false (0) = inactive

### Prompt Assay outcome for "O=[N+]([O-])c1nccn1CO[C@@H](CO)[C@H](O)CO" : what was it?
### Response false (0)

### Prompt Just curious, what result did "COC(=O)c1c(Cl)c(Cl)c(C(=O)OC)c(Cl)c1Cl" get here?
### Response false (0)

### Prompt How was CC(CC(C#N)(c1ccccc1)C(C)C)N(C)C (stereo unspecified) classified in this test?
### Response false (0)

### Prompt Kindly provide the recorded test outcome for the following compound: "CCn1ccc(NS(=O)(=O)c2ccc(N)cc2)nc1=O"
### Response false (0)

### Prompt Lab log entry: CC(C)Cc1ccc(C(C)C(=O)OCc2ccccn2)cc1 (stereo unspecified) — outcome as called in the assay?
### Response false (0)

### Prompt I would be grateful if you could indicate the recorded call for CC1CCCCN1CCCOC(=O)c1ccc(OC2CCCCC2)cc1 (stereo unspecified) .
### Response false (0)

### Prompt # lookup: test call for "CCCC(=O)Nc1ccc(O)c(C(C)=O)c1"
### Response false (0)

### Prompt Call for entry "CC(=O)OC[C@H]1O[C@@H](OC(C)=O)[C@H](OC(C)=O)[C@@H]1OC(C)=O" :
### Response false (0)

### Prompt Tell me the recorded outcome of this test for "CC[C@@H]([C@H](C)O)n1ncn(-c2ccc(N3CCN(c4ccc(OC[C@@H]5CO[C@@](Cn6cncn6)(c6ccc(F)cc6F)C5)cc4)CC3)cc2)c1=O" .
### Response false (0)

### Prompt Lab log entry: "CC[C@@]1(O)C(=O)OCc2c1cc1n(c2=O)Cc2c-1nc1ccccc1c2/C=N/OC(C)(C)C" — outcome as called in the assay?
### Response true (1)

### Prompt For "N[C@@H](Cc1cc(I)c(O)c(I)c1)C(=O)O" , what call appears in the results of this test?
### Response false (0)

### Prompt Write down the call the test reported for this compound. Item: CC(C)C(=O)Nc1cccc(C2CN3CCSC3=N2)c1 (stereo unspecified)
### Response false (0)

### Prompt Outcome logged for "CN(C)C(=O)CNC(=O)Cc1ccccc1" in this assay:
### Response false (0)

### Prompt I would be grateful if you could indicate the recorded call for "C#Cc1ccc(-c2ccccc2F)cc1" .
### Response false (0)

### Prompt // return assay outcome for "O=C(O)Cn1cnnn1"
### Response false (0)

### Prompt What is the recorded call for this compound in the test? "COC(=O)c1cc(Cl)ccc1OC"
### Response false (0)

### Prompt For "COC(=O)c1cc(S(N)(=O)=O)ccc1OC" , which call appears in the assay record?
### Response false (0)

### Prompt Check the results log: what was the call for CC(C)(C)C1CCC(CC2=C(O)c3ccccc3C(=O)C2=O)CC1 (stereo unspecified) ?
### Response false (0)

### Prompt Give the logged outcome of this assay for the following compound: "C[C@]12CCC(=O)C=C1CC[C@@H]1[C@@H]2[C@@H](O)C[C@@]2(C)[C@H]1CC[C@]2(O)C(=O)COC(=O)CCC(=O)O"
### Response false (0)

### Prompt Please indicate how the test categorized "Cc1cccc(N(C)C(=S)Oc2ccc3c(c2)CCC3)c1" .
### Response false (0)

### Prompt What did this assay record as the result for "CN(C)CCCOC1(Cc2ccccc2)CCCCCC1" ?
### Response false (0)

---

Experiment: qHTS of pediatric cancer cell lines to identify multiple opportunities for drug repurposing: Primary screen for BT-12 cells (AID 1347101); note: nearly all actives have a fitted effect of over 25% in size
Settings: BT-12 viability, CellTiter-Glo luminescence, 48 h; series mostly up to 57.3 µM
Results filed as inconclusive are left out. Active and inactive are the calls of the source. Calls come from the whole dose curve; as a rule, active = well fitted cell-killing curve with a large enough effect; inconclusive = small, poorly fitted or top-dose-only effect; inactive = flat fitted curve, though single readings scatter.
Allowed answers: 1 (yes) (active), 0 (no) (inactive)

### Prompt Dear all, I need the recorded test outcome for "CO/N=C(/C(=O)N[C@@H]1C(=O)N2C(C(=O)O)=C(Cn3nnc(C)n3)CS[C@H]12)c1csc(N)n1" , thank you.
### Response 0 (no)

### Prompt Answer briefly: the call reported for "Cc1onc(-c2c(Cl)cccc2Cl)c1C(=O)Cl" in this assay.
### Response 0 (no)

### Prompt What classification did C1=CC2C3C=CC(C3)C2C1 (stereo unspecified) end up with in this test?
### Response 0 (no)

### Prompt Could you check what this test reported for "NC(=O)NS(=O)(=O)c1ccc(Cl)cc1" ?
### Response 0 (no)

### Prompt Tell me the recorded outcome of this test for "C/C=C(/C(=C/C)c1ccc(OC(C)=O)cc1)c1ccc(OC(C)=O)cc1" .
### Response 0 (no)

### Prompt Assay result, entry "CCCCCCCCCCCCCC[N+](C)(C)C" — outcome?
### Response 1 (yes)

### Prompt Dear all, I need the recorded test outcome for "C=CCOc1cc(Cl)ccc1C(=O)NCCN(CC)CC" , thank you.
### Response 0 (no)

### Prompt What did this assay record as the result for "O=C1CCCc2c(O)cccc21" ?
### Response 0 (no)

### Prompt In this assay, the call recorded for "O=C(CCCCC(=O)Nc1c(I)cc(I)c(C(=O)O)c1I)Nc1c(I)cc(I)c(C(=O)O)c1I" was what?
### Response 0 (no)

### Prompt Write down the call the test reported for this compound. Item: "Cc1oc(=O)oc1COC(=O)[C@@H]1N2C(=O)[C@@H](NC(=O)[C@H](N)c3ccccc3)[C@H]2SC1(C)C"
### Response 0 (no)

### Prompt Field: outcome | Entry: "CC(C)(C)c1ccc(C(=O)CCCCl)cc1"
### Response 0 (no)

### Prompt Can you look up the reported call for "CCCCCCCC(=O)[O-].CCCCCCCC(=O)[O-].[Zn+2]" for me?
### Response 0 (no)

### Prompt Dear all, I need the recorded test outcome for CC(C(=O)O)c1ccc(/C=C2\CCCCC2=O)cc1 (stereo unspecified) , thank you.
### Response 0 (no)

### Prompt Please indicate how the test categorized "CC(C)NCCCC1(C(N)=O)c2ccccc2-c2ccccc21" .
### Response 0 (no)

### Prompt Can you look up the reported call for "N#Cc1cc(NC(=O)C(=O)O)c(Cl)c(NC(=O)C(=O)O)c1" for me?
### Response 0 (no)

### Prompt State the result this test recorded for "COC(=O)/C=C\C(=O)OC" .
### Response 0 (no)
